Tested on: SF-539 CNS
Experiment: NCI-60 one-dose screen, 48 h
Conditions: 10 µM unless noted
This is part of a sample that, as a whole, favours compounds with a hit. Of some 83,000 tested, about 20% had one in any assay. Calls of active or inactive are those of the source. How the source made its calls: active means growth percent below 10; inactive means the rest.
Classes used: active, inactive

COMPOUND | ASSIGNED_CLASS
C/C(=N/N=C(N)N)c1ccc(Cl)cc1 | inactive
Cc1cc2c(cc1[N+](=O)[O-])NC(CNC(C)C)CC2 (configuration not stated) | inactive
COc1cc(NC(=O)c2cc3ccccc3cc2O)c(OC)cc1Cl | active
O=C1c2nsnc2C(=O)c2c(F)c(F)c(F)c(F)c21 | active
CCC(C)(C)C(=O)O[C@H]1C[C@@H](C)C=C2C=C[C@H](C)[C@H](CC[C@@H]3C[C@@H](O)CC(=O)O3)[C@H]21 | inactive
CC(C)c1ccc(C(=O)Nc2sc3c(CN(C)C)c(O)ccc3c2C(N)=O)cc1 | inactive
CN1C(=O)/C(=C/c2nc(-c3cccc(F)c3)n3ccccc23)c2ccccc21 | inactive
CCCCCCCCCCCCCCCCN=C(CC(=O)O)C(=O)O | inactive
O=C1OC(c2ccc(-c3ccccc3)cc2)=C/C1=C/c1cccs1 | inactive
COc1ccc2nccc(/C=C/c3ccnc4ccc(OC)cc34)c2c1 | inactive
Clc1nc(Cl)c2ncn(-c3ccccc3)c2n1 | inactive
COc1ccc(CCN2CCCN3C2=Nc2ccccc2S3(=O)=O)cc1 | active
COC1=CC(c2ccc[nH]2)=N/C1=C\c1[nH]c(C)c(C(=O)CCC(=O)Oc2ccc3c(c2)CCC2C3CC[C@]3(C)C(=O)CC[C@@H]23)c1C (some centres not stated) | inactive
O=Nc1ccc(O)c(=O)cc1 | inactive
O=C(/C=C/c1cccnc1)/C=C/c1cccnc1 | active
COc1ccc(C2=NN(C(C)=O)C(c3cc(OC)c(OC)c(OC)c3)C2)cc1 (configuration not stated) | inactive
CC(C)COCC(CN(Cc1ccccc1)c1ccccc1)N1CCCC1 (configuration not stated) | inactive
O=C(/C=C/c1cc2ccccc2[nH]c1=O)c1ccc(O)cc1 | inactive
Oc1ccccc1/C=N\Nc1ccccc1 | active
CC(C)c1nc(N(C)S(C)(=O)=O)nc(-c2ccc(F)cc2)c1/C=C/[C@@H](O)C[C@@H](O)CC(=O)O | inactive
O=C(Nc1ccncc1)C(=O)c1cn(S(=O)(=O)c2cccc(F)c2)c2ccccc12 | inactive
CCCCN(CCCC)CCCOC(=O)c1ccc(N)cc1 | inactive
Clc1ccccc1[C@@H]1C[C@@H]2Cc3cc(Br)c4ccccc4c3N1O2 | active
Cc1c(C)c(N2C(=O)C=CC2=O)c(C)c(C)c1N1C(=O)C=CC1=O | inactive
CCn1c2c(c3ccccc31)SC1c3cccn3CCN1C2=S (configuration not stated) | inactive
COc1ccc(COC(C)=O)cc1 | inactive
CCOC(=O)/C(=C/c1ccccc1)C(=O)c1ccccc1 | inactive
Cc1cc(C(C)(C)c2cc(C)c(O)c(CN(C)C)c2)cc(CN(C)C)c1O | inactive
CC(=O)Oc1ccc(C23c4ccccc4C2(OC(C)=O)c2cc(OC(C)=O)ccc23)cc1 (configuration not stated) | inactive
C[C@]12CC[C@@H]3c4ccc(O)c([N+](=O)[O-])c4CC[C@H]3[C@@H]1CC[C@@H]2NS(=O)(=O)c1ccc(C(F)(F)F)cc1 | inactive
CC1=NN(c2ccccc2Cl)C(=O)/C1=C\c1cn(S(=O)(=O)c2ccc(C)cc2)c2ccccc12 | inactive
Cn1cc(-c2nc(-c3c[nH]c4ncccc34)cs2)c2cccnc21 | inactive
CCCCOc1ccc(C(C)(C)c2ccc(OCCCC)cc2)cc1 | inactive
C=CC1=C(C(=O)O)N2C(=O)[C@@H](NC(=O)/C(=N\O)c3csc(N)n3)[C@H]2SC1 (stereo in doubt) | inactive
C=C(C)[C@@H]1C[C@H](O)Cc2cc(Cl)cc(Cl)c2N1 | inactive
CCN1C(=O)c2ccc3c4c(ccc(c24)C1=O)C(=O)N(CCCNCc1ccccc1OC)C3=O | active
O=C(c1nn(-c2ccc(Cl)cc2)cc1O)n1nc(C(F)(F)F)cc1-c1ccccc1 | inactive
COC(=O)CCC1=C(C)/C(=C/c2[nH]c(-c3ccc[nH]3)cc2OC)N=C1C | inactive
O=C(Cn1ccnc1)NC(c1ccccc1)c1ccccc1 | inactive
COc1ccc(OC)c(/C=C/c2nc(=S)n(-c3ccc(Cl)cc3)[nH]2)c1 | inactive
Clc1ccc(CCC(Cn2ccnc2)Sc2c(Cl)cccc2Cl)cc1 (configuration not stated) | inactive
N=c1ccn2c(n1)O[C@@H]1[C@@H](O)[C@H](CO)O[C@@H]12 | inactive
